methodDescription: Pharmacokinetics of compound (III), alone versus in combination with (I) and ritonavir
Type: in vivo, human
conditionContext: human, in vivo; (III) alone, 1000 mg bid; geometric mean (CV%)
endpointName: Cmax

# molecule COc1ccc2c(c1)C=C1Cn3c-2c(C2CCCCC2)c2ccc(cc23)C(=O)NS(=O)(=O)N(C)CCOCCN(C)C1=O [III] ; its Cmax = 5220 ng/mL

* * *

methodDescription: Pharmacokinetics of compound (I), alone versus in combination with (III) and ritonavir, healthy subjects
Type: in vivo, human
conditionContext: human, in vivo; 50 mg (I) + 300 mg (III) + 20 mg RTV qd for 14 days; same 10 healthy volunteers; geometric mean; read-out: AUC24 h
endpointName: AUC(0-t) (µg·h/mL)
Numbers only, in µg·h/mL.

AUC(0-t) reported for this compound COc1ccc2c(O[C@@H]3C[C@H]4C(=O)N[C@]5(C(=O)NS(=O)(=O)C6CC6)C[C@H]5/C=C\CCCCN(C)C(=O)[C@@H]4C3)cc(-c3nc(C(C)C)cs3)nc2c1C : 20
